The measured values listed here are drawn from PubChem BioAssay.

# normalised cell number annotations
Assay: differential killing of epithelial or mesenchymal cells, primary screen, imaging, PC-3E GFP, TEM4-18 mCherry, co-culture (AID 1345086);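 note: cells exposed to compound for 72 h before imaging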
Settings: imaging cell counts, measured here: mesenchymal TEM4-18 mCherry cell survival, at 1 µM

# compound, normalised cell number
records = [
    ("CC[C@@H]1C(=O)OC[C@@H]1Cc1cncn1C", 1.14),
    ("CCNC1(c2cccs2)CCCCC1=O (stereo not given)", 1.05),
    ("N#Cc1c(Cl)nc(NC2CC2)c2ccccc12", 0.91),
    ("C[C@H]1C[C@@H](O)[C@]2(O)[C@@]13CC(=O)OC[C@@]2(C)[C@](C)(O)C(=O)C3", 1.13),
    ("O=c1oc2ccccc2c(O)c1Cc1c(O)c2ccccc2oc1=O", 1.32),
    ("NCC(CC(=O)O)c1ccc(Cl)cc1 (stereo not given)", 0.89),
    ("COc1cc2c(cc1OC)C(C)NCC2 (stereo not given)", 0.94),
    ("O=C1C(Cl)=C(Cl)C(=O)C(Cl)=C1Cl", 1.04),
    ("C[C@H]1OC(O[C@H]2[C@@H](O)CC(O[C@H]3[C@@H](O)C[C@H](O[C@H]4CC[C@]5(C)C6CC[C@]7(C)[C@@H](C8=CC(=O)OC8)[C@@H](O)C[C@]7(O)[C@@H]6CC[C@@H]5C4)O[C@@H]3C)O[C@@H]2C)C[C@H](O)C1O (stereo not given in full)", 0.07),
    ("N[C@@H](Cc1ccc(N(CCCl)CCCl)cc1)C(=O)O", 0.77),
]
